The reported measurements were obtained from patent US20050272726A1.

Where a name gives a salt, the structure may show the parent alone.
# reported melting point; entries follow

Sample answers from the record:
- compound: "CC(C)(Cc1ccc(F)cc1F)NCC(O)c1cc(O)cc2c1OCC(=O)N2 (centres unmarked) (as salt: hydrochloride)"
  melting point: "279 to 280 °C"
- compound: "Cc1cc(CC(C)(C)NCC(O)c2cc(O)cc3c2OCC(=O)N3)ccc1F (centres unmarked) (as salt: hydrochloride) [Example 8]"
  melting point: "278 to 280 °C"
- compound: "Cc1cc(C)cc(CC(C)(C)NCC(O)c2cc(O)cc3c2OCC(=O)N3)c1 (centres unmarked) (as salt: hydrochloride) [Example 13]"
  melting point: "235 to 238 °C"

Record request: melting point value, item CC(C)(Cc1ccc(OCCCC(=O)O)cc1)NCC(O)c1cc(O)cc2c1OCC(=O)N2 (centres unmarked) [Example 14]
201 to 204 °C

Further, for Cc1cc(F)ccc1CC(C)(C)NCC(O)c1cc(O)cc2c1OCC(=O)N2 (centres unmarked) (as salt: hydrochloride) [Example 9] ?
278 to 280 °C
